MEASUREMENT NOTES: Plasma pharmacokinetics of BAY1436032 (LC-MS/MS)
Type: in vivo, human
CONDITION SET: human, plasma, oral, 1200 mg, C1-D1 single-dose, 1200 mg, n=7; geometric mean (CV); read-out: Cmax
Procedure: Plasma samples were collected at various times on C1-D1, C1-D2, C1-D8, and C1-D15 and stored frozen for PK assessments. Collection times on these days are indicated on Supplementary Fig. S1 (C1-D8 PK results are not shown). […] Quantitative analysis of BAY1436032 (free acid) in plasma was performed as described in Supplementary Methods. […] 14 Quantitative analysis of BAY1436032 (free acid) in plasma was determined using a fully […]
PROPERTY MEASURED: Cmax (ng/mL)
Unit ng/mL implied. Number only.

Lookup: Give reported Cmax value for C[C@H]1C[C@@H](n2c(Nc3ccc(OC(F)(F)F)cc3)nc3cc(CCC(=O)O)ccc32)CC(C)(C)C1 [BAY1436032]
Found: 5310
